Data origin: PubChem BioAssay AID1779

Recorded inhibition values for a group of compounds are listed next.
# Tested On: Tyrosine-protein phosphatase non-receptor type 22 (Homo sapiens)
# Method: PTPN22 lymphoid phosphatase activity blockers – biochemical, fluorescence intensity, uHTS (AID 1779);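 also: plate controls were vehicle with enzyme for no effect and no enzyme for full effect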
# Particulars: recombinant LYP phosphatase, at 11.5 µM, hits give high values
In all, about 290,000 compounds went through this assay and about 160 (0.055%) were called active. This excerpt belongs to a sample that is enriched for actives.
Provide the reading as a plain figure in %.

Here are 3 compounds together with their reported answers.
O=S(=O)(/C=C/c1ccccc1)NC1CCCCCCC1 | -7.9
Cc1cccc(C)c1NC(=O)Cn1c(=O)n(CCCC(=O)NC2CCN(Cc3ccccc3)CC2)c(=O)c2ccccc21 | -5.3
CC(C)n1c(C(=O)OCC(=O)NCc2ccc3c(c2)OCO3)cc2occc21 | 59.5

Q: // lookup inhibition for O=C(O)c1cccc(-n2cccc2/C=C2/NC(=O)N(c3cccc(Cl)c3)C2=O)c1
Ans: 0.3

Q: // lookup inhibition for O=C(O)c1ccc(-n2cccc2/C=C2/NC(=O)N(c3cccc(Cl)c3)C2=O)cc1
Ans: 6.2

Q: // lookup inhibition for CC(C)n1c(C(=O)OCC(=O)NCc2ccc3c(c2)OCO3)cc2sccc21
Ans: -13

Q: // lookup inhibition for CC(=O)N1CCCN(Cc2cn(-c3cccc(C)c3)nc2-c2cccc(F)c2)CC1
Ans: -2.6

Q: // lookup inhibition for COc1ccc(OCC(=O)Nc2ccccc2OC(F)F)cc1
Ans: -1.4

Q: // lookup inhibition for Cc1cc(Cl)ccc1OCC(=O)OCC(=O)Nc1ccc(F)c([N+](=O)[O-])c1
Ans: 62

Q: // lookup inhibition for Cc1cc(NC(=O)Cn2c(=O)n(CCCCC(=O)NC3CCN(Cc4ccccc4)CC3)c(=O)c3ccccc32)n[nH]1
Ans: 73.8

Q: // lookup inhibition for Cn1c(N)c(C(=O)COC(=O)CCc2ccccc2)c(=O)n(C)c1=O
Ans: -4.8

Q: // lookup inhibition for OCCOCCn1c(-c2ccccc2)nc(=S)c2c1CCCC2
Ans: -2.3

Q: // lookup inhibition for CC(=O)N1CCN(c2ccc(NC(=O)c3ccc(OCc4ccccc4)cc3)cc2)CC1
Ans: -3.8

###

Recorded inhibition values for a group of compounds are listed next.
# Tested On: Tyrosine-protein phosphatase non-receptor type 22 (Homo sapiens)
# Method: PTPN22 lymphoid phosphatase activity blockers – biochemical, fluorescence intensity, uHTS (AID 1779);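 also: plate controls were vehicle with enzyme for no effect and no enzyme for full effect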
# Particulars: recombinant LYP phosphatase, at 11.5 µM, hits give high values
The whole screen tested about 290,000 compounds, of which about 160 (0.055%) were called active. For the sample, actives were picked, then their nearest neighbours and some compounds at random.
Provide the reading as a plain figure in %.

Here are 10 compounds together with their reported answers.
Cc1cc2c(N=O)c(NO)ccc2[nH]1 | -4.6
CCCCC(CC)C(=O)NCc1ccc(F)cc1 (stereo unspecified) | -9.2
O=C(Cc1ccc([N+](=O)[O-])cc1)N1CCN(c2ccc([N+](=O)[O-])cc2)CC1 | -5.9
O=C(Cc1cccs1)N1CCN(c2ccc(F)cc2)CC1 | -8.1
OCCC1CN(Cc2cccn2-c2ncccn2)CCN1C1CCCC1 (stereo unspecified) | -9.8
COc1ccc(N2CCN(C(=O)c3ccc(COc4ccc5c(C)cc(=O)oc5c4)cc3)CC2)cc1 | 2.8
COc1cc(/C=C/C(=O)OCC(=O)c2c(N)n(C)c(=O)n(C)c2=O)ccc1O | 2.2
CCCCC(C(=O)OCC)C(N)Cc1ccc(F)cc1 (stereo unspecified) | 89.5
O=C(Cc1cccs1)N1CCN(c2ccc([N+](=O)[O-])cc2)CC1 | 70
CCc1ccc(OCc2nnc(SCC(=O)NC3CCCCC3)o2)cc1 | -6.8

Q: Query for Tyrosine-protein phosphatase non-receptor type 22 (Homo sapiens): what inhibition does the record show for COC(=O)CNC(=O)c1ccc(C)s1 ?
Ans: -7.8
